Taken from ChEMBL document CHEMBL1125593.

Test system: membrane-bound phospholipase A2 (Oryctolagus cuniculus)
Assay: Tested in vitro for inhibition of phospholipase A2 (PLA2) in rabbit heart membranes.
reported endpoint: IC30 (µM)
// return numeric value only (unit: µM, not printed)

Guide cases for IC30, answers given:
1. CN1CCC(NS(=O)(=O)c2ccc(N(C)C(=O)/C=C/c3ccc(S(C)(=O)=O)cc3)cc2)CC1
1
2. CN(C(=O)/C=C/c1ccc(S(C)(=O)=O)cc1)c1ccc(S(=O)(=O)N2CCCN(CCc3ccccc3)CC2)cc1
0.025
3. NS(=O)(=O)c1ccc(NC(=O)/C=C/c2ccc(O)c(O)c2)cc1
25

Input line: membrane-bound phospholipase A2 (Oryctolagus cuniculus) / IC30 / CN(C(=O)/C=C/c1ccc(O)c(O)c1)c1ccc(S(=O)(=O)NC2CCc3ccccc3C2)cc1 (stereo not given) : value?
Output line: 5.07

Input line: And for `CN(C(=O)/C=C/c1ccc(O)cc1)c1ccc(S(=O)(=O)NC2CCCCCC2)cc1` ?
Output line: 1.24
